Target: human IgG conjugated with fluorescein isothiocyanate (IgG-FITC) (human)
Assay: MST; IgG-FITC fixed at 50 nM; 16 serial dilutions of E6 from 23.5 uM to 0.7 nM; 50 mM MOPS, 0.05% Tween-20, pH 7; 25 C; fit models Kd and Hill
pKd: −log10 of the molar value.
Assay Endpoint: pKd

SMGLPPGWDEYKTRRFKLGKTYYYNHHILSKTSTWTDPRMSS (designed binder) [E6 (lead ligand, WWp5_4 scaffold), without tag] ... 6.88

Data origin: paper PMC12647017
